Catalogue of molecules with associated fluorescence fold increase
test: intrinsic fluorescence of library compounds, ex339/em460 – biochemical, MLSMR library, data from DPM-DC assay, artefact control, profiling panel (AID 709); settings: compound autofluorescence, ex339/em460 nm, NADH buffer; at 10 µM; hits give high values; 1 = no-compound wells, NADH background;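 further: signal is the first read of a kinetic run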
The whole screen tested about 65,000 compounds, of which about 3,600 (5.5%) were called active. The sample as a whole holds a higher share of actives than the screen did.
// keep it numeric: no unit symbol after the value

Example results:
Input CCCS(=O)(=O)N1CCC(C(=O)NCCc2ccc(OC)c(OC)c2)CC1 , output reported fluorescence fold increase.
1.09

Input CCCC(=O)N1c2ccc(-c3csc(N)n3)cc2CC1C (stereo not drawn) , output reported fluorescence fold increase.
1.13

New cases:
Input c1ccc(Nc2n[nH]nc2-c2ccccc2)cc1 , output reported fluorescence fold increase.
1.07

Input CSc1ccc(-c2c(C#N)c(N)nc3c2c(C)nn3-c2ccccc2)cc1 , output reported fluorescence fold increase.
3.9

Input O=C(NC1CCCCC1)c1ccc2c(=O)n(CC3CCCO3)c(=O)[nH]c2c1 (stereo not drawn) , output reported fluorescence fold increase.
2.11

Input O=C(N1CCOCC1)N(Cc1ccccc1)c1ccccn1 , output reported fluorescence fold increase.
1.08

Input CCOC(=O)c1nc(N)sc1C(=O)OCC , output reported fluorescence fold increase.
1.12

Input CCCc1[nH]nc2c1C(c1c(C)nn(-c3ccccc3)c1Cl)C(C#N)=C(N)O2 (stereo not drawn) , output reported fluorescence fold increase.
1.09

Input COc1ccc(-c2cc3ccc(OCc4nn[nH]n4)cc3oc2=O)cc1 , output reported fluorescence fold increase.
3.01

Input CS(=O)(=O)NCc1ccc(C(=O)NCc2ccccc2)cc1 , output reported fluorescence fold increase.
1.04

Input COc1ccc(CCNC(=O)C2CCN(c3nn4c(=O)cc(C)nc4s3)CC2)cc1OC , output reported fluorescence fold increase.
1.05

Input Cc1cccc(N(CC(O)CN(C)C)S(=O)(=O)c2ccccc2)c1 (stereo not drawn) , output reported fluorescence fold increase.
1.08

Input Cc1nc(NCc2ccccc2)c(C(N)=O)c2c1COC(C)(C)C2 , output reported fluorescence fold increase.
1.89

Input CCOC(=O)N1CCN(C(=O)c2ccc3nc4cc(Cl)ccc4c(=O)n3c2)CC1 , output reported fluorescence fold increase.
3.31

Input CSc1nnc(CNC(=O)c2ccccc2)n1-c1ccc(F)cc1 , output reported fluorescence fold increase.
1.11

Input COc1ccc(C2/C(=C(/O)c3ccc(OC(C)C)cc3)C(=O)C(=O)N2CCCN2CCOCC2)cc1 (stereo not drawn) , output reported fluorescence fold increase.
1.01

Input Cc1cc(C)c(C#N)c(SCc2ccc3c(c2)OCO3)n1 , output reported fluorescence fold increase.
1.09

Input Cc1nnc(SCC(=O)Nn2cnnc2)s1 , output reported fluorescence fold increase.
1.03

Input COC(=O)c1ccc2c(=O)n(CC3CCCO3)c(=S)[nH]c2c1 (stereo not drawn) , output reported fluorescence fold increase.
1.06
